Here, each record is paired with measured CC50 data.
- protocol_details: HEp-2 cell cytotoxicity, dose response, cytotoxicity control for RSV inhibitor project, HTS (AID 2410)
- Format: functional
- cond: human respiratory syncytial virus
Activity calls are given as the source filed them.
parameter_measured: CC50

INSERT INTO assay_data (smiles_notation, parameter_measured, readout_value) VALUES
  ('COc1ccc(CN2C[C@H](Cc3ccccc3)[C@@H](CC(=O)Nc3ccccc3)C2=O)cc1', 'CC50', '22 µM (active)'),
  ('COc1ccccc1N(Cc1ccccc1)S(=O)(=O)c1cccc(C(=O)Nc2cc(C)ccn2)c1', 'CC50', '21.8 µM (active)'),
  ('O=C(Nc1ccc(N2CCOCC2)cc1)c1cc2c(s1)CCCCC2', 'CC50', '23.8 µM (active)'),
  ('CCOC(=O)c1cnc(SCc2cccc(C)c2)nc1N', 'CC50', '43.8 µM (active)');

* * *

- assay_system: Eukaryotic translation initiation factor 4E (Mus musculus)
- Sequence (P63073 whole entry): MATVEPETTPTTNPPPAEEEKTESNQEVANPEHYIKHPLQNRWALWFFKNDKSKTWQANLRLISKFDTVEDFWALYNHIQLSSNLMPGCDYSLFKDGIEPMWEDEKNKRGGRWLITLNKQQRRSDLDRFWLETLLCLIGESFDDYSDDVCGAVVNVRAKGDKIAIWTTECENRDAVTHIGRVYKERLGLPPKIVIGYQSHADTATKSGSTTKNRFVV
- protocol_details: eIF4E–eIF4G protein interaction inhibitors, dose response, biochemical, TR-FRET (AID 855);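 further: potency for disrupting eIF4E binding to eIF4GI seen as loss of FRET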
- Type: functional
The source made the active and inactive calls.
parameter_measured: IC50

INSERT INTO measurements (molecule, readout_value) VALUES
  ('O=C(CSc1ccsc1[N+](=O)[O-])Nc1cccc(F)c1', '50 µM (inactive)'),
  ('CCn1c(SCC(=O)NCc2ccc3c(c2)OCO3)nnc1-c1cccs1', '> 64 µM (inactive)'),
  ('Cc1ccc(S(=O)(=O)NCC(=O)N(CC(=O)NCC2CCCO2)C2CCCC2)cc1 (stereo not given)', '> 64 µM (inactive)'),
  ('CCOC(=O)CSc1nnc(CSc2nc(C)cc(C)n2)n1Cc1ccco1', '> 64 µM (inactive)'),
  ('COc1ccc(/C=N/n2c(S)nnc2-c2cccs2)cc1', '> 64 µM (inactive)');

* * *

Here, each record is paired with measured IC50 data.
- assay_system: UniProt:P34949
- Sequence (P34949 whole entry): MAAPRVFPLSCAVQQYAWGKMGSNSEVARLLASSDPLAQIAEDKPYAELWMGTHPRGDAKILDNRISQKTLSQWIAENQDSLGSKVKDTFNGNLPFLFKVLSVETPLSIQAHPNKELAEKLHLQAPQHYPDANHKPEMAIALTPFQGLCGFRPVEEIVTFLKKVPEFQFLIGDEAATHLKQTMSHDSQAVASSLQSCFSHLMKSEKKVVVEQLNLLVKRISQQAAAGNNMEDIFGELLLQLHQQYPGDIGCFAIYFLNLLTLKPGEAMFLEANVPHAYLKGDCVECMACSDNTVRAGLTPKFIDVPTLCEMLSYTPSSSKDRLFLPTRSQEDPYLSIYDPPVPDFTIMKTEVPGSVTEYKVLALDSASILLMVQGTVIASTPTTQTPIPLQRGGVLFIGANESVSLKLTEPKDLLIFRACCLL
- protocol_details: human PMI inhibitors, high substrate, primary screen, biochemical, fluorescence intensity, high mannose 6-phosphate (AID 1220)
Active and inactive are the calls of the source.
parameter_measured: IC50

INSERT INTO measurements (molecule, readout_value) VALUES
  ('CCCC(=O)OCCNc1cc(SCCC(=O)OC)c2nonc2c1[N+](=O)[O-]', '> 50 µM (not active)'),
  ('CN(C)C=O.Cc1cc(-c2ccco2)c(C#N)c2nc3ccccc3n12', '> 50 µM (not active)'),
  ('O=C(Cc1cnn(-c2ccccc2)c1)c1ccc(O)c(O)c1O', '4.69 µM (active)'),
  ('O=C(Nc1cc(N2CCOCC2)ncn1)NC1(C(F)(F)F)Oc2ccc(Cl)cc2O1 (stereo not given)', '18.1 µM (active)'),
  ('CCOC(=O)C1=C(c2ccc(OC)cc2)C(=O)c2ccccc2C1=O', '> 50 µM (not active)');

* * *

- assay_system: Sentrin-specific protease 8 (Homo sapiens, UniProt Q96LD8);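 further: luminescence read-out of SENP8 inhibition, dose-response confirmation following an ultra-high-throughput screen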
- Sequence (Q96LD8 whole entry): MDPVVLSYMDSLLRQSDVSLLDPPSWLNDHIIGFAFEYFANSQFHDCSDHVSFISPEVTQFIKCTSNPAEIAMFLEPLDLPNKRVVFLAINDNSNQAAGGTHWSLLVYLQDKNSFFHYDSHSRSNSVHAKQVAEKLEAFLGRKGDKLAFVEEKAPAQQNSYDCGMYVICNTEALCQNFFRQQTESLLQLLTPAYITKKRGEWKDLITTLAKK
- Assay type: functional
Active and inactive are the calls of the source.
parameter_measured: IC50

INSERT INTO measurements (compound, parameter_measured, readout_value) VALUES
  ('CCOC(=O)c1ccc(-c2ccc3c(c2)CCC3)nc1C', 'IC50', '45.2 µM (active)'),
  ('CCOc1ccc(/C=C2\CCc3ccccc3C2=O)cc1', 'IC50', '1.88 µM (active)'),
  ('CCCCn1c(NC(=O)c2ccccc2Cl)c(C#N)c2nc3ccccc3nc21', 'IC50', '1.99 µM (active)'),
  ('O=C(Nc1nnc(C(F)(F)F)s1)c1ccc(Br)s1', 'IC50', '24.1 µM (active)'),
  ('CC(C)Oc1ccc2c(=O)c(-c3ccccc3)coc2c1 [IPRIFLAVONE]', 'IC50', '94.8 µM (active)'),
  ('Cc1ccc(C(=O)Nc2ccc3c(c2)OCO3)cc1Cl', 'IC50', '> 100 µM (inactive)'),
  ('CCc1ccc(OCC(=O)N/N=C2\CC(=O)c3ccccc32)cc1', 'IC50', '8.49 µM (active)');

* * *

- assay_system: Heat shock factor protein 1 (Mus musculus, UniProt P38532)
- Sequence (P38532 whole entry): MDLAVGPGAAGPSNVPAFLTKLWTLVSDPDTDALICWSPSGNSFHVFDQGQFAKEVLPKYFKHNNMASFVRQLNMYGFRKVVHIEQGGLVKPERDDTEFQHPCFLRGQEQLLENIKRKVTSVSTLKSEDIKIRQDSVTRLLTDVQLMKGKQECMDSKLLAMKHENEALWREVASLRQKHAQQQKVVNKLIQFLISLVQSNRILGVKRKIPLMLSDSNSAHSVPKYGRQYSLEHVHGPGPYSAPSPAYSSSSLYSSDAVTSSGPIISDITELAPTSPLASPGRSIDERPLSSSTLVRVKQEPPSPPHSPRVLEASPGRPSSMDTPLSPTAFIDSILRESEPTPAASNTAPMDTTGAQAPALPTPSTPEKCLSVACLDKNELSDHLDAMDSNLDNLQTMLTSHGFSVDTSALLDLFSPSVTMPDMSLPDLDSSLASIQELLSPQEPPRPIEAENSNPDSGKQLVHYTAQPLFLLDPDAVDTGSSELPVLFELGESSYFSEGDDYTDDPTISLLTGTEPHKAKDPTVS
- protocol_details: inhibition of MG132-induced HSE-luciferase signal, confirmation, cell-based, NIH3T3, luminescence, dose retest (AID 2382);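 further: NIH3T3 fibroblasts with HSF1-driven luciferase reporter stressed by proteasome inhibitor MG132; luminescence from HSF1-driven luciferase expression after 8 hours of MG132 stress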
- Type: functional
The source made the active and inactive calls.
Here, each record is paired with measured EC50 data.
parameter_measured: EC50

INSERT INTO assay_data (compound, assay_system, readout_value) VALUES
  ('COCCn1c(SCC(=O)c2cc(C)n(C)c2C)nc2ccccc2c1=O', 'Heat shock factor protein 1 (Mus musculus, UniProt P38532)', '> 195 µM (not active)'),
  ('Fc1ccc(NC(S)=NCc2ccccc2)cc1', 'Heat shock factor protein 1 (Mus musculus, UniProt P38532)', '> 195 µM (not active)'),
  ('COC(=O)c1ccc(CNC(=O)C(NC(=O)c2ccco2)C(C)C)cc1 (stereo unspecified)', 'Heat shock factor protein 1 (Mus musculus, UniProt P38532)', '> 195 µM (not active)'),
  ('O=C(Nc1ccc(N2C(=O)C3C4C=CC(C4)C3C2=O)cc1)Nc1nncs1 (stereo unspecified)', 'Heat shock factor protein 1 (Mus musculus, UniProt P38532)', '> 195 µM (not active)'),
  ('COC(=O)c1ccc(CN2CCN(CCc3ccccc3)C(CCO)C2)cc1 (stereo unspecified)', 'Heat shock factor protein 1 (Mus musculus, UniProt P38532)', '> 195 µM (not active)'),
  ('CCOC(=O)C1CCN(C(=O)CC(C)c2ccccc2)CC1 (stereo unspecified)', 'Heat shock factor protein 1 (Mus musculus, UniProt P38532)', '13.5 µM (active)'),
  ('Cn1c(=O)c2cn(Cc3ccc(Cl)cc3)cc2n(C)c1=O', 'Heat shock factor protein 1 (Mus musculus, UniProt P38532)', '> 195 µM (not active)'),
  ('CCOC(=O)C(CC)Sc1ccc2nnc(-c3cccnc3)n2n1 (stereo unspecified)', 'Heat shock factor protein 1 (Mus musculus, UniProt P38532)', '> 195 µM (not active)'),
  ('O=C(Nc1ccc(N2CCOCC2)cc1)c1cc(-c2ccncc2)nc2ccccc12', 'Heat shock factor protein 1 (Mus musculus, UniProt P38532)', '> 195 µM (not active)'),
  ('Cc1ccc(S(=O)(=O)N2CCC(C(=O)NNC(=O)c3ccncc3)CC2)cc1', 'Heat shock factor protein 1 (Mus musculus, UniProt P38532)', '> 195 µM (not active)'),
  ('CC(C)C[C@@H](CC#N)N1CCN(Cc2ccccc2)CCC1=O', 'Heat shock factor protein 1 (Mus musculus, UniProt P38532)', '> 195 µM (not active)');

* * *

- assay_system: UniProtKB P34707
- Sequence (P34707 whole entry): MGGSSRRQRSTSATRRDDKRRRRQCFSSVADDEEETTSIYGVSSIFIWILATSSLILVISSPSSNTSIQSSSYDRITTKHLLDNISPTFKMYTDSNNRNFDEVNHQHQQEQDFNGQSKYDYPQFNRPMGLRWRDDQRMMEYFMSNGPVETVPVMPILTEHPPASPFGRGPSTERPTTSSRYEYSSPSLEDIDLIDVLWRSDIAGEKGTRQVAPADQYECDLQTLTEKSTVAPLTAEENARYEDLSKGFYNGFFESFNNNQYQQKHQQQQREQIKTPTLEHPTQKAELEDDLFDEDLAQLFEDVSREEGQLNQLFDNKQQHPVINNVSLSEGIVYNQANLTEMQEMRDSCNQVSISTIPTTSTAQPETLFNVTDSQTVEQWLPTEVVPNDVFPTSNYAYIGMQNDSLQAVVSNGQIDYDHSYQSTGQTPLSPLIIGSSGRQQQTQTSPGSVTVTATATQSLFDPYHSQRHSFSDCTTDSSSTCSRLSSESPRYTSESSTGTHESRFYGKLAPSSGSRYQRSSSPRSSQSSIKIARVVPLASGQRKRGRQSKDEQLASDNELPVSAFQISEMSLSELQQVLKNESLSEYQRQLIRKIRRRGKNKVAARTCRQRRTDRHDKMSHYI
- Type: functional
Activity calls are given as the source filed them.
Outcomes: T (active), F (inactive)

INSERT INTO measurements (molecule, category_label) VALUES
  ('CCCCNC(=O)COC(=O)c1cc(S(=O)(=O)N2CCCCCC2)ccc1OC', 'F'),
  ('CN(C)c1nc(SCc2ccccc2Cl)nc2c1CCCC2', 'F'),
  ('CCCCCCCCNc1ncnc2ccccc12', 'T'),
  ('COc1ccc(CC(=O)Nc2nnc(SCc3ccccc3)s2)cc1S(=O)(=O)N1CCOCC1', 'F'),
  ('O=[N+]([O-])c1ccc(/C=C/C2=NN(c3ccccc3)C(c3ccco3)C2)o1 (stereo not given)', 'F'),
  ('c1ccc(-n2nc3ccc4c[nH]nc4c3n2)cc1', 'F'),
  ('CSc1ccc(-c2nnn(Cc3ccc(Br)cc3)n2)cc1', 'F'),
  ('Oc1cccc(Nc2c3ccccc3nc3ccccc23)c1', 'F'),
  ('O=C(COC(=O)c1cccc(S(=O)(=O)N2CCOCC2)c1)Nc1ncc(C(F)(F)F)cc1Cl', 'F'),
  ('Nc1ncc(-c2ccc(-c3ccccc3)cc2F)cc1-c1ccccc1F', 'F');
